# System: community-acquired methicillin-resistant S. aureus (MRSA-CA)
# assayDetails: In vitro MIC against isolates of MRSA-CA
# Assay type: cell-based, Staphylococcus aureus
# cond: Staphylococcus aureus; MRSA-CA (33 isolates)
reportedMetric: MIC50
Respond with a number, then the unit of measure.

CCC[C@@H]1C[C@@H](C(=O)N[C@@H]([C@H]2O[C@H](SC)[C@H](O)[C@@H](O)[C@H]2O)[C@H](C)Cl)N(C)C1 [Clindamycin]; 0.12 µg/mL
CC(=O)NC[C@H]1CN(c2ccc(N3CCOCC3)c(F)c2)C(=O)O1 [Linezolid]; 2 µg/mL
Cc1onc(-c2ccccc2)c1C(=O)N[C@@H]1C(=O)N2[C@@H]1SC(C)(C)[C@@H]2C(=O)O [Oxacillin]; 32 µg/mL

I'm hoping you can list MIC50 for every compound here, please.
1. CON(C)Cc1ccc(O)c2c1C[C@H]1C[C@H]3[C@H](N(C)C)C(O)=C(C(N)=O)C(=O)[C@@]3(O)C(O)=C1C2=O [The Active]
2. C[C@H]1c2cccc(O)c2C(=O)C2=C(O)[C@]3(O)C(=O)C(C(N)=O)=C(O)[C@@H](N(C)C)[C@@H]3[C@@H](O)[C@@H]21 [Doxycycline, doxycycline]

RESULT:
1: 0.25 µg/mL; 2: 0.12 µg/mL

Origin of values: patent US20130302442A1
